Record form. Attribute: MIC. Fill in for each entry.
test system: Pichia kudriavzevii; assay: Antifungal activity against Candida krusei Berkout KCCM 11655 after 1 day by twofold broth dilution method; type: functional; conditions: Berkout KCCM 11655, 24 h
Field format: number, assumed µg/mL, no unit text.

O=C1C(Sc2ccc(F)cc2)=C(Sc2ccc(F)cc2)C(=O)c2ncncc21 yielded MIC of 12.5

O=C1C(SCCO)=C(SCCO)C(=O)c2ncncc21 yielded MIC of 12.5

Cc1ccc(SC2=C(Sc3ccc(C)c(C)c3)C(=O)c3ncncc3C2=O)cc1C yielded MIC of 12.5

Cc1cccc(SC2=C(Sc3cccc(C)c3)C(=O)c3ncncc3C2=O)c1 yielded MIC of 25

* * *

system: Aspergillus flavus; test: Antifungal activity against Aspergillus flavus KCCM 11899 after 2 days by twofold broth dilution method; type: functional; conditions: KCCM 11899, 48 h
Kindly apply the following: true (1) if MIC is less than 6 µg/mL, false (0) in every other case.

Q: Identify whether the molecule Cc1cccc(SC2=C(Sc3cccc(C)c3)C(=O)c3ncncc3C2=O)c1 records MIC below 6 µg/mL.
Result: false (0)

Q: Identify whether the molecule CCOC(=O)c1c(N)oc2c1c(Sc1ccc(C)cc1)c(O)c1ncncc12 records MIC below 6 µg/mL.
Result: false (0)

Q: Identify whether the molecule COc1ccc(OC)c2ncncc12 records MIC below 6 µg/mL.
Result: false (0)

Q: Identify whether the molecule O=C1C(Sc2ccc(F)cc2)=C(Sc2ccc(F)cc2)C(=O)c2ncncc21 records MIC below 6 µg/mL.
Result: true (1)

Q: Identify whether the molecule Nc1nc(=O)[nH]cc1F records MIC below 6 µg/mL.
Result: false (0)

Q: Identify whether the molecule Cc1ccc(SC2=C(Sc3ccc(C)c(C)c3)C(=O)c3ncncc3C2=O)cc1C records MIC below 6 µg/mL.
Result: false (0)

Q: Identify whether the molecule O=C1C(Sc2ccccc2F)=C(Sc2ccccc2F)C(=O)c2ncncc21 records MIC below 6 µg/mL.
Result: false (0)

Q: Identify whether the molecule CCSC1=C(SCC)C(=O)c2ncncc2C1=O records MIC below 6 µg/mL.
Result: false (0)

Q: Identify whether the molecule O=C1C(Sc2ccc(Br)cc2)=C(Sc2ccc(Br)cc2)C(=O)c2ncncc21 records MIC below 6 µg/mL.
Result: false (0)

Q: Identify whether the molecule CCOC(=O)c1c(N)oc2c1c(Sc1ccc(Br)cc1)c(O)c1ncncc12 records MIC below 6 µg/mL.
Result: false (0)

Q: Identify whether the molecule CCOC(=O)c1c(N)oc2c1c(Sc1cccc(Cl)c1)c(O)c1ncncc12 records MIC below 6 µg/mL.
Result: false (0)

Q: Identify whether the molecule CCOC(=O)c1c(N)oc2c1c(Sc1ccc(F)c(F)c1)c(O)c1ncncc12 records MIC below 6 µg/mL.
Result: true (1)

Q: Identify whether the molecule O=C1C(Sc2ccc(F)c(F)c2)=C(Sc2ccc(F)c(F)c2)C(=O)c2ncncc21 records MIC below 6 µg/mL.
Result: true (1)

Q: Identify whether the molecule CCOC(=O)c1c(N)oc2c1c(Sc1ccc(F)cc1)c(O)c1ncncc12 records MIC below 6 µg/mL.
Result: false (0)

Q: Identify whether the molecule O=C1C(Sc2ccc(F)cc2F)=C(Sc2ccc(F)cc2F)C(=O)c2ncncc21 records MIC below 6 µg/mL.
Result: false (0)

Q: Identify whether the molecule COc1ccc(SC2=C(Sc3ccc(OC)cc3)C(=O)c3ncncc3C2=O)cc1 records MIC below 6 µg/mL.
Result: true (1)

Q: Identify whether the molecule CCOC(=O)c1c(N)oc2c1c(Sc1ccc(OC)cc1)c(O)c1ncncc12 records MIC below 6 µg/mL.
Result: false (0)

Q: Identify whether the molecule O=C1C(Sc2ccc(O)cc2)=C(Sc2ccc(O)cc2)C(=O)c2ncncc21 records MIC below 6 µg/mL.
Result: false (0)

Q: Identify whether the molecule OC(Cn1cncn1)(Cn1cncn1)c1ccc(F)cc1F records MIC below 6 µg/mL.
Result: false (0)

Q: Identify whether the molecule O=C1C(SCCO)=C(SCCO)C(=O)c2ncncc21 records MIC below 6 µg/mL.
Result: false (0)

Q: Identify whether the molecule O=C1C(Sc2cccc(F)c2)=C(Sc2cccc(F)c2)C(=O)c2ncncc21 records MIC below 6 µg/mL.
Result: false (0)

Q: Identify whether the molecule CCOC(=O)c1c(N)oc2c1c(SCC)c(O)c1ncncc12 records MIC below 6 µg/mL.
Result: false (0)

Q: Identify whether the molecule O=C1C(Sc2ccc(Cl)cc2)=C(Sc2ccc(Cl)cc2)C(=O)c2ncncc21 records MIC below 6 µg/mL.
Result: true (1)

Q: Identify whether the molecule O=C1C(Sc2ccccc2)=C(Sc2ccccc2)C(=O)c2ncncc21 records MIC below 6 µg/mL.
Result: true (1)

Q: Identify whether the molecule Cc1ccc(SC2=C(Sc3ccc(C)cc3)C(=O)c3ncncc3C2=O)cc1 records MIC below 6 µg/mL.
Result: true (1)

Q: Identify whether the molecule CCOC(=O)c1c(N)oc2c1c(Sc1ccc(Cl)cc1)c(O)c1ncncc12 records MIC below 6 µg/mL.
Result: false (0)
